The origin of these recorded values is ChEMBL document CHEMBL3885881.

Catalogue of compounds with associated LYMPHOCYTE
Organism: Rattus norvegicus
Experiment description: DrugMatrix - Regimen: Daily Repeat
Assay type: toxicity, organism-based, Sprague-Dawley
Set-up: regimen Daily Repeat, gender Male, age 6-8 weeks
Experimental context: in vivo, iv, 0 mg/kg, 72 h, tissue Blood, dose level Control, time 3 day, vehicle 100 % SALINE
Starred links: 1 amine or outer side, 2 acyl side, 3 side chain; linkers in the order of their positions; H or OH if unused. Positions of bridges follow the written chain, without caps; N, C: chain ends. Non-standard residues stand in square brackets, D forms with d. Residues, ends and D or L forms follow the SMILES beside them. Chains are numbered I, II in the order given. Actinocin(9to1) = Cc1c2oc3c(C)ccc(C(=O)[*:1])c3nc-2c(C(=O)[*:2])c(N)c1=O; NMeV = CN[C@H](C(=O)O)C(C)C; Sar = CNCC(=O)O
Field format: number, assumed %, no unit text.

CC[C@]1(O)C[C@H]2CN(CCc3c([nH]c4ccccc34)[C@@](C(=O)OC)(c3cc4c(cc3OC)N(C=O)[C@H]3[C@@](O)(C(=O)OC)[C@H](OC(C)=O)[C@]5(CC)C=CCN6CC[C@]43[C@@H]65)C2)C1 [VINCRISTINE] | 91.17

## Input Using the record for Cc1c2oc3c(C)ccc(C(=O)N[C@@H]4C(=O)N[C@H](C(C)C)C(=O)N5CCC[C@H]5C(=O)N(C)CC(=O)N(C)[C@@H](C(C)C)C(=O)O[C@@H]4C)c3nc-2c(C(=O)N[C@@H]2C(=O)N[C@H](C(C)C)C(=O)N3CCC[C@H]3C(=O)N(C)CC(=O)N(C)[C@@H](C(C)C)C(=O)O[C@@H]2C)c(N)c1=O [DACTINOMYCIN] (I: T[dV]P[Sar][NMeV] / II: T[dV]P[Sar][NMeV]; ester I:1-I:C, II:1-II:C; linker I:N-II:N via Actinocin(9to1)) , state its measured LYMPHOCYTE.
## Output 88.67

## Input Determine from records and report LYMPHOCYTE for Cc1ccc(N(CC2=NCCN2)c2cccc(O)c2)cc1 [PHENTOLAMINE]
## Output 88.5

## Input Using the record for COc1cc2c3cc1Oc1cc(ccc1O)C[C@@H]1c4c(cc(OC)c(O)c4Oc4ccc(cc4)C[C@@H]3N(C)CC2)CC[N+]1(C)C.[Cl-] , state its measured LYMPHOCYTE.
## Output 89.67
